Details: in n-pentyl acetate, 323.24 K
Measured attribute: solubility (mole fraction)

• C[C@H]1[C@H](OC(=O)CCC(=O)O)O[C@@H]2O[C@@]3(C)CC[C@H]4[C@H](C)CC[C@@H]1[C@@]24OO3 = 0.0244

---

Conditions: in isopropanol, 298.24 K
Measured attribute: solubility (mole fraction)

* C[C@H]1[C@H](OC(=O)CCC(=O)O)O[C@@H]2O[C@@]3(C)CC[C@H]4[C@H](C)CC[C@@H]1[C@@]24OO3 | 0.012

---

Details: in ethanol, 293.19 K
Measured attribute: solubility (mole fraction)

• C[C@H]1[C@H](OC(=O)CCC(=O)O)O[C@@H]2O[C@@]3(C)CC[C@H]4[C@H](C)CC[C@@H]1[C@@]24OO3 = 0.0168

---

Details: in n-butanol, 308.08 K
Measured attribute: solubility (mole fraction)

• C[C@H]1[C@H](OC(=O)CCC(=O)O)O[C@@H]2O[C@@]3(C)CC[C@H]4[C@H](C)CC[C@@H]1[C@@]24OO3 = 0.0233

---

Details: in n-propyl acetate, 303.16 K
Measured attribute: solubility (mole fraction)

• C[C@H]1[C@H](OC(=O)CCC(=O)O)O[C@@H]2O[C@@]3(C)CC[C@H]4[C@H](C)CC[C@@H]1[C@@]24OO3 = 0.024

---

Settings: in n-propyl acetate, 283.16 K
Measured attribute: solubility (mole fraction)

• C[C@H]1[C@H](OC(=O)CCC(=O)O)O[C@@H]2O[C@@]3(C)CC[C@H]4[C@H](C)CC[C@@H]1[C@@]24OO3 = 0.0159

---

Conditions: in n-pentyl acetate, 283.14 K
Measured attribute: solubility (mole fraction)

• C[C@H]1[C@H](OC(=O)CCC(=O)O)O[C@@H]2O[C@@]3(C)CC[C@H]4[C@H](C)CC[C@@H]1[C@@]24OO3 = 0.00918

---

Conditions: in ethanol, 308.16 K
Measured attribute: solubility (mole fraction)

- C[C@H]1[C@H](OC(=O)CCC(=O)O)O[C@@H]2O[C@@]3(C)CC[C@H]4[C@H](C)CC[C@@H]1[C@@]24OO3: 0.0334

---

Conditions: in n-propyl acetate, 318.16 K
Measured attribute: solubility (mole fraction)

* C[C@H]1[C@H](OC(=O)CCC(=O)O)O[C@@H]2O[C@@]3(C)CC[C@H]4[C@H](C)CC[C@@H]1[C@@]24OO3 | 0.0336

---

Details: in isopropyl acetate, 293.2 K
Measured attribute: solubility (mole fraction)

- C[C@H]1[C@H](OC(=O)CCC(=O)O)O[C@@H]2O[C@@]3(C)CC[C@H]4[C@H](C)CC[C@@H]1[C@@]24OO3: 0.0149

---

Conditions: in ethyl acetate, 288.17 K
Measured attribute: solubility (mole fraction)

* C[C@H]1[C@H](OC(=O)CCC(=O)O)O[C@@H]2O[C@@]3(C)CC[C@H]4[C@H](C)CC[C@@H]1[C@@]24OO3 | 0.0221

---

Details: in n-propyl acetate, 323.16 K
Measured attribute: solubility (mole fraction)

* C[C@H]1[C@H](OC(=O)CCC(=O)O)O[C@@H]2O[C@@]3(C)CC[C@H]4[C@H](C)CC[C@@H]1[C@@]24OO3 | 0.0375

---

Conditions: in n-propyl acetate, 298.18 K
Measured attribute: solubility (mole fraction)

• C[C@H]1[C@H](OC(=O)CCC(=O)O)O[C@@H]2O[C@@]3(C)CC[C@H]4[C@H](C)CC[C@@H]1[C@@]24OO3 = 0.0216
